- Tested on: A498 renal
- method: NCI tumour cell line growth inhibition, 48 h
metric: TGI

molecule	TGI
CC(C)=CCOc1cc(NC(=S)c2ccoc2C)ccc1Cl	> 100 µM

Count: 4. Required value per item: TGI.
1. CC(C)OP(=O)(OC(C)C)C(C(C)C)N(C)/C(N)=N\C1=NC(C(F)(F)F)(C(F)(F)F)N=C(C(C(F)(F)F)C(F)(F)F)O1 (stereo not given)
2. CC1=NC(=O)C(C)(c2ccccc2)N1CCc1ccccc1 (stereo not given)
3. C/C(CN1C(=O)c2ccccc2C1=O)=N\NS(=O)(=O)c1ccc(Br)cc1
4. O=C(c1ccc(Cl)cc1Cl)N(C(=O)N1CCC(c2ccccc2)CC1)c1ccccc1

OUT:
["23.5 µM", "> 100 µM", "> 100 µM", "> 100 µM"]

====

- Test system: UACC-62 melanoma
- method: NCI tumour cell line growth inhibition, 48 h
metric: TGI (µM)
Answers are plain numbers, in µM.

Look over these answered cases.
compound	TGI (µM)
COc1ccc2c(c1)CCC1C2CCC2(C)C1CCC2(O)CNC(=O)CCCCC1CCSS1 (stereo not given)	49.4
N#CC(C#N)=Cc1ccc(-c2ccc(-c3nc4ccccc4s3)cc2)o1	70.3
O=C(O)C1C(C(=O)O)C2C(=O)C=CC1N2Cc1ccccc1 (stereo not given)	21.3

IN: Look at this compound and give its reported TGI. N=C(N)c1nn(C2OC(CO)C(O)C2O)c2nc[nH]c(=O)c12 (stereo not given)
OUT: 1.63

====

- System: MCF7 breast
- method: NCI tumour cell line growth inhibition, 48 h
metric: GI50

Look over these answered cases.
compound	result
OCC1OC(n2ccc3c2ncn2ncnc32)C(O)C1O (stereo not given)	183 nM
Fc1ccc(-c2nc3n(c2-c2ccncc2)CCS3)cc1	> 25000 nM
CCN(CC)c1ccc(/C=C/c2cc(C)c3ccccc3n2)cc1	2310 nM
CC1(C)CCC2(C(=O)OC3OC(CO)C(O)C(O)C3O)CC[C@]3(C)C(=CCC4C5(C)CC[C@H](OC6OC(C(=O)O)C(O)C(O)C6O)C(C)(C)C5CCC43C)C2C1 (stereo not given in full)	1600 nM
CN(C)c1ccc2nc3ccc(=[N+](C)C)cc-3oc2c1	368 nM

Count: 2. Required value per item: GI50.
1. CN(C)CCNC(=O)c1cccn2c(=O)c3cc4ccccc4cc3nc12
2. O=C(CCN1CCCC1)Nc1ccc2c(NCc3ccc(F)cc3)c3ccccc3nc2c1

OUT:
["232 nM", "314 nM"]

Count: 2. Required value per item: GI50.
1. COc1cccc(OC(=O)c2ccccc2Nc2ccnc(C(F)(F)F)c2)c1
2. CC1=C(C(=O)OCc2ccccc2)C(c2ccc3c(c2)OCO3)n2c(nc3ccccc32)N1 (stereo not given)

OUT:
1. 7290 nM
2. 236 nM

IN: Kindly state the measured GI50 obtained for `CCOC(=O)c1c2c(n(CC(C)C)c1C)-c1nc[nH]c1C(=O)C2=O` with MCF7 breast.
OUT: 16300 nM

====

Exercise: for every item that follows, state its recorded TGI.
- Tested on: HOP-92 NSCLC
- method: NCI tumour cell line growth inhibition, 48 h

compound	TGI
COc1cc(OCc2ccc3nc(-c4ccccc4)c(N)nc3c2)cc(OC)c1OC	50 µM
COc1cc2c(cc1OC)-c1[nH]c3ccc(C#N)cc3c1CC(=O)N2	> 100 µM
O=C1CC(=O)NC(=NN2C(=O)CSC2c2ccc(Cl)c(Cl)c2)N1 (stereo unspecified)	> 100 µM
N#CC(C#N)=CN1CCN(C(=O)c2ccco2)C1=S	> 100 µM

Count: 4. Required value per item: TGI.
1. O=c1[nH]c(=O)n(C2OC(CO)C(O)C(F)C2O)cc1F (stereo unspecified)
2. COc1cc2c(cc1OC)-c1ccc3cc4c(cc3c1N(CCN1CCCC1)C2)OCO4
3. COC(=O)N1C[C@@]2(C=CC3(CC2)OCCO3)c2ccccc21
4. C=C1C(=O)O[C@@H]2C1CC(=O)C(C)CC/C=C(\C)CCC[C@H](C)[C@H]2OC(C)=O (stereo partly specified)

OUT:
["> 100 µM", "12 µM", "> 100 µM", "9.12 µM"]

Count: 6. Required value per item: TGI.
1. c1ccc(Nc2nnc(CSc3nc(-c4ccccc4)c(-c4ccccc4)[nH]3)s2)cc1
2. O=P(O)(OCC(O)O)OCC(O)O
3. COc1cccc(C2=C(c3cn(C)c4ccccc34)C(=O)NC2=O)c1
4. CCN(CC)c1ccc(/C=C/c2cc(C)c3ccccc3n2)cc1
5. CC(=O)OCC(=O)[C@@]1(O)CC[C@H]2[C@@H]3CCC4=CC(=O)[C@H](C)C[C@]4(C)[C@H]3[C@@H](O)C[C@@]21C
6. COC(=O)c1[nH]c(=S)[nH]c(=O)c1-c1ccc(Cl)cc1

OUT:
1: 37.7 µM; 2: > 100 µM; 3: > 25 µM; 4: 22.9 µM; 5: > 100 µM; 6: > 50 µM
